Molecular target: CTP synthase 1 (Homo sapiens)
Sequence (P17812 whole entry): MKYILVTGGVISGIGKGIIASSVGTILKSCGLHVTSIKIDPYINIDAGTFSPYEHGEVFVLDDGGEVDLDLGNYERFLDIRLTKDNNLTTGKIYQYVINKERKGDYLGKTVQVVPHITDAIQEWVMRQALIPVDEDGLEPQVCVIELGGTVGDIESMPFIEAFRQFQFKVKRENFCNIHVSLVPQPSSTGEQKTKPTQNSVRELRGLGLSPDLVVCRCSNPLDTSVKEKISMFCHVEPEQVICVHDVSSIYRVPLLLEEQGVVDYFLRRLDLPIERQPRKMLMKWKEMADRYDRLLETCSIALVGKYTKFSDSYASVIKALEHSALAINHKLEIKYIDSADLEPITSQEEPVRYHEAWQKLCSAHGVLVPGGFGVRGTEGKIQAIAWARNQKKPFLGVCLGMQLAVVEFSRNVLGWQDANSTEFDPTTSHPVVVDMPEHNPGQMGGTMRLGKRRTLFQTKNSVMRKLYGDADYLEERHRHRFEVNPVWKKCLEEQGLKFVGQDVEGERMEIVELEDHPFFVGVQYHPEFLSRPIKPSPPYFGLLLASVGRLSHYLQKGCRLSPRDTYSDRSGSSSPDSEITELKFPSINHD
Observation type: IC50

>>> reported_result("CCc1c[nH]c2ncc(-c3ccc(C(=O)NCc4cc(NS(=O)(=O)C5CC5)ccn4)cc3)cc12 [US12331046, Compound I-38]")
"< 100 nM"
